The entries below come with measured pIC50 values attached.
- Assay text: cells
- Type: ADME, cell-based
- Experimental parameters: Homo sapiens, HS5, 72 h
// scale note: pIC50 = -log10(conc_M); give the bare number

A selection of reference data follows.
* CN(C)CCCNc1nc(/C=C/c2ccc(S(C)(=O)=O)cc2)nc2ccc(Cl)cc12 | 5.39
* CN(C)CCNc1nc(/C=C/c2ccc(F)cc2)nc2ccccc12 | 5.20
* CSc1ccc(/C=C/c2nc(NCCN(C)C)c3ccccc3n2)cc1 | 5.40
* CCN(CC)CCNc1nc(/C=C/c2ccc(C(C)C)cc2)nc2ccc(F)cc12 | 5.47
* CC(C)c1ccc(/C=C/c2nc(NCCN(C)C)c3cc(Cl)ccc3n2)cc1 | 5.52
* CN(C)CCNc1nc(/C=C/c2ccc(S(C)(=O)=O)cc2)nc2ccc(Cl)cc12 | 5.32
* COc1cc2c(N3CCN(C(=O)Nc4ccc(OC(C)C)cc4)CC3)ncnc2cc1OCCCN1CCCCC1 [TANDUTINIB] | 4.94
* CCN(CC)CCNc1nc(/C=C/c2ccc(S(C)(=O)=O)cc2)nc2ccc(Cl)cc12 | 5.39
* CCN(CC)CCCNc1nc(/C=C/c2ccc(OC)cc2)nc2ccc(Br)cc12 | 5.68

Please look at the following compound next.
So, CC(C)c1ccc(/C=C/c2nc(NCCN(C)C)c3cc(F)ccc3n2)cc1 ? Its pIC50 was 5.48

* * *

- Assay text: physchem
- Experimental parameters: buffer, pH 2
Measurement name: solubility kinetic at 24 h (µM)
Report the value in µM with no unit label.

* CC(C)c1ccc(/C=C/c2nc(NCCN(C)C)c3cc(F)ccc3n2)cc1 | 119
* CCN(CC)CCCNc1nc(/C=C/c2ccc(OC)cc2)nc2ccc(Br)cc12 | 96
* CSc1ccc(/C=C/c2nc(NCCN(C)C)c3ccccc3n2)cc1 | 119

# molecule CN(C)CCNc1nc(/C=C/c2ccc(S(C)(=O)=O)cc2)nc2ccc(Cl)cc12 ; its solubility kinetic at 24 h = 112

* * *

- Assay text: physchem
- Experimental parameters: buffer, pH 2
Measurement name: solubility kinetic at 24 h (µM)
Give the value in µM but do not write µM after it.

Some compounds with known solubility kinetic at 24 h results, for comparison:
• CCN(CC)CCNc1nc(/C=C/c2ccc(C(C)C)cc2)nc2ccc(F)cc12 = 120
• CN(C)CCCNc1nc(/C=C/c2ccc(S(C)(=O)=O)cc2)nc2ccc(Cl)cc12 = 111
• CN(C)CCNc1nc(/C=C/c2ccc(F)cc2)nc2ccccc12 = 120

Value of measured solubility kinetic at 24 h for the entry CCN(CC)CCNc1nc(/C=C/c2ccc(S(C)(=O)=O)cc2)nc2ccc(Cl)cc12 : 115

Record CC(C)c1ccc(/C=C/c2nc(NCCN(C)C)c3cc(Cl)ccc3n2)cc1 . Reported solubility kinetic at 24 h: 110

* * *

- Assay text: physchem
- Experimental parameters: buffer, pH 7.4
Measurement name: solubility kinetic at 24 h (µM)
Write down the numeric answer in µM and omit the unit.

• CC(C)c1ccc(/C=C/c2nc(NCCN(C)C)c3cc(F)ccc3n2)cc1 = 5
• CSc1ccc(/C=C/c2nc(NCCN(C)C)c3ccccc3n2)cc1 = 116
• CN(C)CCNc1nc(/C=C/c2ccc(F)cc2)nc2ccccc12 = 10
• CCN(CC)CCNc1nc(/C=C/c2ccc(C(C)C)cc2)nc2ccc(F)cc12 = 36

Form field solubility kinetic at 24 h, entry CCN(CC)CCNc1nc(/C=C/c2ccc(S(C)(=O)=O)cc2)nc2ccc(Cl)cc12 : 12

# solubility kinetic at 24 h (compound: CN(C)CCNc1nc(/C=C/c2ccc(S(C)(=O)=O)cc2)nc2ccc(Cl)cc12 ) is 8

Notebook: CC(C)c1ccc(/C=C/c2nc(NCCN(C)C)c3cc(Cl)ccc3n2)cc1 , solubility kinetic at 24 h read as 12

// solubility kinetic at 24 h lookup, compound = CCN(CC)CCCNc1nc(/C=C/c2ccc(OC)cc2)nc2ccc(Br)cc12 , result: 96

The compound CN(C)CCCNc1nc(/C=C/c2ccc(S(C)(=O)=O)cc2)nc2ccc(Cl)cc12 showed solubility kinetic at 24 h equal to 23
